Hey, just so you know, these numbers are from paper PMC12121987.

test_target: PAD1 (Homo sapiens, UniProt Q9ULC6)
Sequence (Q9ULC6 1-663): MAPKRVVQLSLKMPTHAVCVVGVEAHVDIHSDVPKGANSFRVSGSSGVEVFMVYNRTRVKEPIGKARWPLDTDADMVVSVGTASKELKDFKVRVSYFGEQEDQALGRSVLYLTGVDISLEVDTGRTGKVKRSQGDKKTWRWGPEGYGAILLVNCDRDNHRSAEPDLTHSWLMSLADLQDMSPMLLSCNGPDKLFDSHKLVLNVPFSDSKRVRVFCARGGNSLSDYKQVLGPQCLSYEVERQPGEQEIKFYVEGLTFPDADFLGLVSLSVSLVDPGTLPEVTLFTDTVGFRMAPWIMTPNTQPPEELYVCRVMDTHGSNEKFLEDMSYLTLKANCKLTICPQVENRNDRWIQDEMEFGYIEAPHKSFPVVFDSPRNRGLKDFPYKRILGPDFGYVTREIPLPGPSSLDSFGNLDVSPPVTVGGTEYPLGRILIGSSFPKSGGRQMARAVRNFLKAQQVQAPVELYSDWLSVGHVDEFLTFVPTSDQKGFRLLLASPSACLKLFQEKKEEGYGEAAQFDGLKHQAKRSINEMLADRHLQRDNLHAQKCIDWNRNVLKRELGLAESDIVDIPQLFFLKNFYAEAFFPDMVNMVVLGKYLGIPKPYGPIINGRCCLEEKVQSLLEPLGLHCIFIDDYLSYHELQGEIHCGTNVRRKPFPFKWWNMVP
attribute_measured: IC50 (µM)
Your answer should be a plain number; it is taken to be in µM.

Recorded IC50 for O=C(CO)NCCC[C@H](NC(=O)c1ccc(-c2ccccc2)cc1)c1nc2ccccc2[nH]1 with PAD1 (Homo sapiens, UniProt Q9ULC6), please?
32

====

Recorded IC50 at 48 h for the following molecules
assay_notes: MTT cytotoxicity assay
Format: cell-based
experimental_setup: human, A549 cells, 48-hour incubation, read-out: IC50 against A549 cells (cytotoxicity)

| chemical_string | IC50 at 48 h |
| --- | --- |
| O=C(CO)NCCC[C@H](NC(=O)c1ccc(-c2ccccc2)cc1)c1nc2ccccc2[nH]1 | > 500 µM |

Okay, next one:
Which IC50 at 48 h is listed for N=C(CO)NCCC[C@H](NC(=O)c1ccc(-c2ccccc2)cc1)c1nc2ccccc2[nH]1 ?
~455 µM

====

Recorded half-life at 0.2 μM for the following compounds
assay_notes: Microsomal metabolic stability, mouse liver microsomes
Assay type: in vitro ADME
experimental_setup: male, C57BL/6, mouse, pooled liver microsomes, pH 7.4, MLM, read-out: half-life (t1/2) in mouse liver microsomes

| compound | attribute_measured | measured_result |
| --- | --- | --- |
| N=C(CCl)NCCC[C@H](NC(=O)c1ccc(-c2ccccc2)cc1)c1nc2ccccc2[nH]1 [BB-Cl-amidine, reference compound] | half-life at 0.2 μM | 18.1 min |

Which half-life at 0.2 μM is listed for N=C(CO)NCCC[C@H](NC(=O)c1ccc(-c2ccccc2)cc1)c1nc2ccccc2[nH]1 [Compound 7] ?
> 60 min

Same again, this time with O=C(CO)NCCC[C@H](NC(=O)c1ccc(-c2ccccc2)cc1)c1nc2ccccc2[nH]1 [Compound 8]
> 60 min

====

assay_notes: Microsomal metabolic stability, human liver microsomes
Type: in vitro ADME
experimental_setup: both sexes, pooled liver microsomes, pH 7.4, HLM, read-out: half-life (t1/2) in human liver microsomes
Recorded half-life at 0.2 μM for the following compounds

| compound | attribute_measured | measured_result |
| --- | --- | --- |
| N=C(CO)NCCC[C@H](NC(=O)c1ccc(-c2ccccc2)cc1)c1nc2ccccc2[nH]1 | half-life at 0.2 μM | > 1 h |
| O=C(CO)NCCC[C@H](NC(=O)c1ccc(-c2ccccc2)cc1)c1nc2ccccc2[nH]1 | half-life at 0.2 μM | > 1 h |

Okay, next one:
Which half-life at 0.2 μM is listed for N=C(CCl)NCCC[C@H](NC(=O)c1ccc(-c2ccccc2)cc1)c1nc2ccccc2[nH]1 [BB-Cl-amidine, reference compound] ?
1.03 h

====

assay_notes: Microsomal metabolic stability, mouse liver microsomes
Assay type: in vitro ADME
experimental_setup: male, C57BL/6, mouse, pooled liver microsomes, pH 7.4, 60 min, n = 3, read-out: %remaining in MLM
Method: The metabolic stability of the compounds was evaluated using mouse liver microsomes (MLM) and human liver microsomes (HLM). Each compound was tested at a final concentration of 0.2 μM to determine their half-lives. […] Microsomal metabolic stability assay protocol […] The percent of remaining compound (%R) compared to zero sample time was obtained at each time point using LC-MS peak areas. […] The in vitro t1/2was measured by […]
attribute_measured: remaining at 1 h, 0.2 μM (%)
Your answer should be a plain number; it is taken to be in %.

| molecule | remaining at 1 h, 0.2 μM, % |
| --- | --- |
| N=C(CCl)NCCC[C@H](NC(=O)c1ccc(-c2ccccc2)cc1)c1nc2ccccc2[nH]1 [BB-Cl-amidine, reference compound] | 10.4 |

Which remaining at 1 h, 0.2 μM is listed for N=C(CO)NCCC[C@H](NC(=O)c1ccc(-c2ccccc2)cc1)c1nc2ccccc2[nH]1 [Compound 7] ?
75.9

Same again, this time with O=C(CO)NCCC[C@H](NC(=O)c1ccc(-c2ccccc2)cc1)c1nc2ccccc2[nH]1 [Compound 8]
63

====

assay_notes: Microsomal metabolic stability, mouse liver microsomes
Assay type: in vitro ADME
experimental_setup: male, C57BL/6, mouse, pooled liver microsomes, pH 7.4, MLM, rough estimation beyond the 60 min assay, read-out: t1/2 in MLM, rough estimation
Method: The metabolic stability of the compounds was evaluated using mouse liver microsomes (MLM) and human liver microsomes (HLM). Each compound was tested at a final concentration of 0.2 μM to determine their half-lives. […] Microsomal metabolic stability assay protocol […] The percent of remaining compound (%R) compared to zero sample time was obtained at each time point using LC-MS peak areas. […] The in vitro t1/2was measured by […]
attribute_measured: half-life at 0.2 μM

| compound | half-life at 0.2 μM |
| --- | --- |
| O=C(CO)NCCC[C@H](NC(=O)c1ccc(-c2ccccc2)cc1)c1nc2ccccc2[nH]1 [Compound 8] | ~1.45 h |

Okay, next one:
Which half-life at 0.2 μM is listed for N=C(CO)NCCC[C@H](NC(=O)c1ccc(-c2ccccc2)cc1)c1nc2ccccc2[nH]1 [Compound 7] ?
~2.65 h
